Would you kindly list Reduction in Signal from Heparin at 30 sec for each of these binders?
- System Under Test: T1, recombinant human GREM1 (hGREM1-His; C-terminal 10His tagged, R&D, #5190-GR) (human, UniProt O60565 25-184)
- T1 construct: range 25-184; also called recombinant human GREM1 with a C-terminal decahistidine tag
- T1 sequence: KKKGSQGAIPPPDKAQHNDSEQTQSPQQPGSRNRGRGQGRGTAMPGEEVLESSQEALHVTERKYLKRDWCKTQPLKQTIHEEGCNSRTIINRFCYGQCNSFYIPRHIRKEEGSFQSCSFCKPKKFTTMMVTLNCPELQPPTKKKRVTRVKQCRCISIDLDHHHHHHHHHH
- Protocol Description: BLI Octet, mAb captured, 100 nM GREM1 without vs with 5 uM heparin;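 also: octet Red96 biolayer interferometry at 25 °C, antibodies captured on anti-human IgG Fc biosensors, association of GREM1 measured with versus without heparin in HEPES-buffered saline, pH 7.4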
# do not omit the unit; it follows the number

Problem: Fill blank: measured Reduction in Signal from Heparin at 30 sec of the binder H4H2780N (antibody, human IgG4, V domains shown, H4H prefix = human IgG4 Fc) VH: EVQLVESGGGLVKPGGSLRLSCAASGFTFSTYSMNWVRQAPGKGLEWVSSISSGSSYIYYTDSVKGRFTISRDNAKNSLYLQMNSLRAEDTAVYYCARFGSYYYFGFDVWGQGTTVTVSS VL: DIQMTQSPSSLSASVGDRVTITCRASQGISNYLAWYQQKPGKVPKLLIFSASTLQSGVPSRFSGSGSGPDFTLTVSSLQPEDVATYYCQKYNSAPFAFGPGTKVDIK is ____.
Solution: 0 nm

Problem: Form field: reported Reduction in Signal from Heparin at 30 sec of H4H6250P (antibody, human IgG4, V domains shown, H4H prefix = human IgG4 Fc) VH: QVQLVESGGGVVQPGRSLRLSCAASGFTFSNYGMHWVRQAPGKGLEWVAVIWYDGSNKYYADSVKGRFTISRDNSRKTLYLQMNSLRAEDTAIYYCTRDDYGDYDYPFDYWGQGTLVTVSS VL: DIQMTQSPSSLSASVGDRVTITCRASQGIRNDLGWYQQKPGKAPKRLIYAASSLQSGVPSRFSGTGSGTEFTLTISSLQPEDFATYYCLQHNSYPPFTFGPGTKVDIK
Solution: 0.14 nm

Problem: Given the binder H4H2926N (antibody, human IgG4, V domains shown, H4H prefix = human IgG4 Fc) VH: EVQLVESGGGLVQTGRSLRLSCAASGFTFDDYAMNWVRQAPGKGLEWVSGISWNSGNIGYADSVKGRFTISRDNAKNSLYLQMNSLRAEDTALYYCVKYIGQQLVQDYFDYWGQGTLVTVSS VL: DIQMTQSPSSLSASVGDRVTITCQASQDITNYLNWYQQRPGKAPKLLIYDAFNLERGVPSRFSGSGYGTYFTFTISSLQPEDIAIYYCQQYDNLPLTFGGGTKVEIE , what is its reported Reduction in Signal from Heparin at 30 sec?
Solution: 0.16 nm
